# target desc: human BRD4 first bromodomain (BDI_K57-E168) (Homo sapiens (Human))
# assay remarks: TR-FRET bromodomain binding assay, BRD4 first bromodomain
I'd be grateful if you could share measured log10 of Ki for these entries.
Transform log10 | Measure Ki | Unit nM

Cn1cc(-c2cc(S(C)(=O)=O)ccc2NC2CCOC2)c2cc[nH]c2c1=O (stereo not shown)	0.81

Batch lookup, log10 of Ki per entry.
1. Cn1cc(-c2cc(S(=O)(=O)N3CC(F)(F)C3)ccc2OCC2CC2)c2cc[nH]c2c1=O
2. Cn1cc(-c2cc(NS(C)(=O)=O)ccc2OC2CCCOC2)c2cc[nH]c2c1=O (stereo not shown)
3. Cn1cc(-c2cc(S(=O)(=O)Nc3ccc(F)cc3)ccc2OCC2CC2)c2cc[nH]c2c1=O
4. Cn1cc(-c2cc(NS(C)(=O)=O)ccc2Oc2ccc(C#N)cc2)c2cc[nH]c2c1=O
5. Cn1cc(-c2cc(S(N)(=O)=O)cnc2NC2CCCCC2)c2cc[nH]c2c1=O
6. Cn1cc(-c2cc(S(=O)(=O)N3CCOCC3)ccc2Oc2ccc(F)cc2F)c2cc[nH]c2c1=O

Marked response:
1.70
-0.12
1.19
0.41
-0.20
2.26

Batch lookup, log10 of Ki per entry.
1. COc1ccc2[nH]cc(CCNC(=O)c3ccc(Oc4ccc(F)cc4F)c(-c4cn(C)c(=O)c5[nH]ccc45)c3)c2c1
2. CCCS(=O)(=O)Nc1ccc(Oc2ccc(F)cc2F)c(-c2cn(C)c(=O)c3[nH]ccc23)c1
3. CCS(=O)(=O)c1ccc(OC2CCSCC2)c(-c2cn(C)c(=O)c3[nH]ccc23)c1
4. Cn1cc(-c2cc(C(N)=O)ccc2Oc2ccc(F)cc2F)c2cc[nH]c2c1=O
5. Cn1cc(-c2cc(NS(=O)(=O)CCF)ccc2OC2CCOC2)c2cc[nH]c2c1=O (stereo not shown)
6. CCS(=O)(=O)N(CC1CCCO1)c1ccc(Oc2ccc(F)cc2F)c(-c2cn(C)c(=O)c3[nH]ccc23)c1 (stereo not shown)

Marked response:
1. 2.51
2. 1.83
3. 0.08
4. 1.33
5. 1.09
6. 2.11

Batch lookup, log10 of Ki per entry.
1. Cn1cc(-c2cc(CS(C)(=O)=O)ccc2Oc2ccc(F)cc2F)c2cn[nH]c2c1=O
2. Cn1cc(-c2cc(C(=O)NCC(C)(C)O)ccc2Oc2ccc(F)cc2F)c2cc[nH]c2c1=O
3. Cn1cc(-c2cc(S(C)(=O)=O)ccc2Nc2ccc(F)cc2)c2cc[nH]c2c1=O

Marked response:
1. 1.52
2. 1.43
3. 1.48
